As shown below, each of these compounds has a reported EC50 value.
biological target: human CB2 (hCB2) receptor (Homo sapiens, UniProt P34972); construct: expressed in transfected cells; host or cells: CHO-K1; assay: Inhibition of forskolin-activated cAMP production upon activation of hCB2 (HTRF), CHO-K1 cells; format: cell-based; conditions: hCB2-CHO-K1 cells, forskolin-activated cAMP, pEC50=-log(EC50); read-out: CB2 pEC50 (converted)
Sequence (P34972 whole entry): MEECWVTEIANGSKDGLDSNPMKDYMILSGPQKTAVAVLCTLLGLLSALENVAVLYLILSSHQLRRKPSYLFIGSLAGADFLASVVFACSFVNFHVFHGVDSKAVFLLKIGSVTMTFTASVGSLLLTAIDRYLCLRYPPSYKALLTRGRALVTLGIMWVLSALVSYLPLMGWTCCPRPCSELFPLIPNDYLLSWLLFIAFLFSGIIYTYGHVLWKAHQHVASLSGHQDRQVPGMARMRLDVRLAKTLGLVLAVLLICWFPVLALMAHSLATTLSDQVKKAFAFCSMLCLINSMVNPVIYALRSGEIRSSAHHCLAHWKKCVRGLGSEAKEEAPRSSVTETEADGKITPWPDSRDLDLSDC

| compound | EC50 |
| --- | --- |
| CC(C)(C)c1nc2cc(S(=O)(=O)c3ccc(CN)nc3)ccc2n1CC1CCOCC1 | 5.89 nM |
| Cc1nccc(S(=O)(=O)c2ccc3c(c2)nc(C(C)(C)C)n3CC2CCOCC2)n1 | 2.4 nM |
| CC(C)(C)c1nc2cc(S(=O)(=O)c3cc[n+]([O-])cc3C(F)(F)F)ccc2n1CC1CCOCC1 | 3.8 nM |
| CC(=O)NCc1ccc(S(=O)(=O)c2ccc3c(c2)nc(C(C)(C)C)n3CC2CCOCC2)cn1 | 4.47 nM |
| CC(C)(C)c1nc2cc(S(=O)(=O)c3ccn(/C(F)=C\I)c(=O)c3)ccc2n1CC1CCOCC1 | 5.01 nM |
| CC(C)(C)c1nc2cc(S(=O)(=O)c3ccnc(F)c3)ccc2n1CCC1CCOCC1 | 2.09 nM |
| CC(=O)c1ccc(S(=O)(=O)c2ccc3c(c2)nc(C(C)(C)C)n3CC2CCOCC2)s1 | 1.07 nM |
| C=Cc1cc(S(=O)(=O)c2ccc3c(c2)nc(C(C)(C)C)n3CC2CCOCC2)ccn1 | 0.955 nM |
| COc1ccc(CNCCc2cc(S(=O)(=O)c3ccc4c(c3)nc(C(C)(C)C)n4CC3CCOCC3)ccn2)cc1 | 3.47 nM |
| CC(C)(C)c1nc2cc(S(=O)(=O)c3ccnc(F)c3)ccc2n1CC1CCOCC1 | 0.813 nM |
| CC(C)(C)c1nc2cc(S(=O)(=O)c3ccc(S(C)(=O)=O)nc3)ccc2n1CC1CCCCC1 | 0.708 nM |
| CC(C)(C)c1nc2cc([S+]([O-])c3ccncc3Br)ccc2n1CC1CCOCC1 (centres unmarked) | 2.34 nM |
| CC(C)(C)c1nc2cc(S(=O)(=O)c3ccn(/C(F)=C/I)c(=O)c3)ccc2n1CC1CCOCC1 | 2.69 nM |
| CC(C)(C)c1nc2cc(S(=O)(=O)c3nccc(C(N)=O)n3)ccc2n1CC1CCOCC1 | 3.16 nM |
| COC(=O)c1ccc(S(=O)(=O)c2ccc3c(c2)nc(C(C)(C)C)n3CC2CCOCC2)nc1 | 1.7 nM |
| COCCCn1cc(S(=O)(=O)c2ccc3c(c2)nc(C(C)(C)C)n3CC2CCOCC2)cn1 | 1.82 nM |
| COc1cc(S(=O)(=O)c2ccc3c(c2)nc(C(C)(C)C)n3CC2CCC(F)(F)CC2)ccn1 | 0.977 nM |
| CC(C)(C)c1nc2cc(S(=O)(=O)c3ncc(S(C)(=O)=O)cc3Br)ccc2n1CC1CCOCC1 | 12 nM |
| CC(C)(C)c1nc2cc(S(=O)(=O)c3ccc(C(N)=O)o3)ccc2n1CC1CCOCC1 | 1.55 nM |
| CC(C)(C)c1nc2cc(S(=O)(=O)c3ccnc(F)c3)ccc2n1C[C@H]1CC[C@@](C)(O)CC1 | 0.851 nM |
| CC(=O)c1ccc([S+]([O-])c2ccc3c(c2)nc(C(C)(C)C)n3CC2CCOCC2)nc1 (centres unmarked) | 2.57 nM |
| CC(C)(C)c1nc2cc(S(=O)(=O)c3ccnc(F)c3)ccc2n1CCC1OCCO1 | 10.7 nM |
| CC(C)(C)c1nc2cc(S(=O)(=O)c3cncc(C#N)c3)ccc2n1CC1CCCCC1 | 0.676 nM |
| COc1ccc(S(=O)(=O)c2ccc3c(c2)nc(C(C)(C)C#N)n3CC2CCOCC2)nn1 | 6.92 nM |
| COCCCc1cc(S(=O)(=O)c2ccc3c(c2)nc(C(C)(C)C)n3CC2CCOCC2)ccn1 | 1.12 nM |
| Cn1cc(S(=O)(=O)c2ccc3c(c2)nc(C(C)(C)C)n3CC2CCOCC2)ccc1=O | 2.88 nM |
| CC(C)(C)c1nc2cc([S+]([O-])c3cc[n+]([O-])cc3Br)ccc2n1CC1CCOCC1 (centres unmarked) | 12 nM |
| CC(C)(C)c1nc2cc(S(=O)(=O)c3cncc(C#N)c3)ccc2n1CC1CCOCC1 | 1 nM |
| CC(C)(C)c1nc2cc(S(=O)(=O)c3sc(S(C)(=O)=O)cc3Br)ccc2n1CC1CCOCC1 [Co. No. 63] | 0.977 nM |
| CC(C)(C)c1nc2cc(S(=O)(=O)c3ccc(S(=O)(=O)N4CCOCC4)s3)ccc2n1CC1CCOCC1 | 1.82 nM |
| CC(C)(C)c1nc2cc(S(=O)(=O)c3ccc(C#N)o3)ccc2n1CC1CCOCC1 | 1.05 nM |
| CC(C)(C)c1nc2cc(S(=O)(=O)c3ccnc(CCCCN)c3)ccc2n1CC1CCOCC1 | 13.2 nM |

---

target: human CB2 (hCB2) receptor (Homo sapiens, UniProt P34972); construct: expressed in transfected cells; host or cells: CHO-K1; test: Inhibition of forskolin-activated cAMP production upon activation of hCB2 (HTRF), CHO-K1 cells; format: cell-based; conditions: Table C-1; selectivity hCB2 over hCB1
Classify by measured ratio CB2 agonism over CB1 agonism: class 1 if it is equal to or exceeds 600, class 0 if it is smaller.

| compound | classification |
| --- | --- |
| CC(C)(C)c1nc2cc(S(=O)(=O)c3coc(C4OCCO4)c3)ccc2n1CC1CCOCC1 | class 0 |
| CC(C)(C)c1nc2cc(S(=O)(=O)c3cccc(C(F)(F)F)n3)ccc2n1CC1CCOCC1 | class 1 |
| CC(C)(C)c1nc2cc(S(=O)(=O)c3ccnc(F)c3)ccc2n1CC1CCOC(=O)CC1 (stereo not shown) | class 1 |
| CC(C)(C)c1nc2cc(S(=O)(=O)c3ccc(C#N)nc3)ccc2n1CC1CCOCC1 | class 0 |
| CC(C)(C)c1nc2cc(S(=O)(=O)c3ccnc(OC(F)F)c3)ccc2n1CC1CCOCC1 | class 1 |
| CC(C)(C)c1nc2cc(S(=O)(=O)c3ccn(/C(F)=C\I)c(=O)c3)ccc2n1CC1CCOCC1 | class 1 |
| CC(C)(C)c1nc2cc(S(=O)(=O)c3ccc(=O)[nH]n3)ccc2n1CC1CCOCC1 | class 1 |
| CC(C)(C)c1nc2cc(S(=O)(=O)c3ccc(S(N)(=O)=O)s3)ccc2n1CC1CCOCC1 | class 1 |
| COCCCOc1cc(S(=O)(=O)c2ccc3c(c2)nc(C(C)(C)C)n3CC2CCOCC2)ccn1 | class 1 |
| COC(=O)c1ccc(S(=O)(=O)c2ccc3c(c2)nc(C(C)(C)C)n3CC2CCOCC2)nc1 | class 1 |
| CC(C)(C)c1nc2cc(S(=O)(=O)c3ncccc3C#N)ccc2n1CC1CCOCC1 | class 0 |
| CC(=O)N1CCC(Cn2c(C(C)(C)C)nc3cc(S(=O)(=O)c4ccc(C#N)s4)ccc32)CC1 | class 1 |
| CC(C)(C)c1nc2cc(S(=O)(=O)c3ccc(OCC(F)(F)F)nc3)ccc2n1CC1CCOCC1 | class 1 |
| CC(C)(C)c1nc2cc([S+]([O-])c3c(Cl)cncc3Cl)ccc2n1CC1CCOCC1 (stereo not shown) | class 1 |
| Cc1nccc(S(=O)(=O)c2ccc3c(c2)nc(C(C)(C)C)n3CC2CCOCC2)n1 | class 1 |
| COc1ccc(S(=O)(=O)c2ccc3c(c2)nc(C(C)(C)C#N)n3CC2CCOCC2)nn1 | class 0 |
| CC(C)(C)c1nc2cc([S+]([O-])c3ccc(Cl)nn3)ccc2n1CC1CCOCC1 (stereo not shown) | class 0 |
| CC(C)(C)c1nc2cc(S(=O)(=O)c3cc(S(C)(=O)=O)cnc3O)ccc2n1CC1CCOCC1 | class 1 |
| CC(C)(C)c1nc2cc(S(=O)(=O)c3ccc(C(F)(F)F)cn3)ccc2n1CC1CCOCC1 | class 1 |
| COC(=O)c1ccc(S(=O)(=O)c2ccc3c(c2)nc(C(C)(C)C)n3CC2CCCCC2)nc1 | class 0 |
| CC(C)(C)c1nc2cc(S(=O)(=O)c3ccnc(F)c3)ccc2n1CC1CCOCC1 | class 0 |
| CC(C)(C)c1nc2cc(S(=O)(=O)c3ccnc(O)c3)ccc2n1CC1CCOCC1 | class 1 |
| CCOc1cc(S(=O)(=O)c2ccc3c(c2)nc(C(C)(C)C)n3CC2CCOCC2)ccn1 | class 1 |
| COc1ccc(S(=O)(=O)c2ccc3c(c2)nc(C(C)(C)C)n3CC2CCOCC2)nn1 | class 0 |
| CC(C)(C)c1nc2cc(S(=O)(=O)c3ccnc(F)c3)ccc2n1C[C@H]1CC[C@H](O)CC1 | class 1 |
| CC(=O)N1CCC(Cn2c(C(C)(C)C)nc3cc(S(=O)(=O)c4cnn(C)c4)ccc32)CC1 | class 1 |
| COc1ccc(CNCCc2cc(S(=O)(=O)c3ccc4c(c3)nc(C(C)(C)C)n4CC3CCOCC3)ccn2)cc1 | class 1 |
